// provenance: patent US20190031599A1

# target: human mGluR7 (Homo sapiens, UniProt Q14831)
# Sequence (Q14831 35-915): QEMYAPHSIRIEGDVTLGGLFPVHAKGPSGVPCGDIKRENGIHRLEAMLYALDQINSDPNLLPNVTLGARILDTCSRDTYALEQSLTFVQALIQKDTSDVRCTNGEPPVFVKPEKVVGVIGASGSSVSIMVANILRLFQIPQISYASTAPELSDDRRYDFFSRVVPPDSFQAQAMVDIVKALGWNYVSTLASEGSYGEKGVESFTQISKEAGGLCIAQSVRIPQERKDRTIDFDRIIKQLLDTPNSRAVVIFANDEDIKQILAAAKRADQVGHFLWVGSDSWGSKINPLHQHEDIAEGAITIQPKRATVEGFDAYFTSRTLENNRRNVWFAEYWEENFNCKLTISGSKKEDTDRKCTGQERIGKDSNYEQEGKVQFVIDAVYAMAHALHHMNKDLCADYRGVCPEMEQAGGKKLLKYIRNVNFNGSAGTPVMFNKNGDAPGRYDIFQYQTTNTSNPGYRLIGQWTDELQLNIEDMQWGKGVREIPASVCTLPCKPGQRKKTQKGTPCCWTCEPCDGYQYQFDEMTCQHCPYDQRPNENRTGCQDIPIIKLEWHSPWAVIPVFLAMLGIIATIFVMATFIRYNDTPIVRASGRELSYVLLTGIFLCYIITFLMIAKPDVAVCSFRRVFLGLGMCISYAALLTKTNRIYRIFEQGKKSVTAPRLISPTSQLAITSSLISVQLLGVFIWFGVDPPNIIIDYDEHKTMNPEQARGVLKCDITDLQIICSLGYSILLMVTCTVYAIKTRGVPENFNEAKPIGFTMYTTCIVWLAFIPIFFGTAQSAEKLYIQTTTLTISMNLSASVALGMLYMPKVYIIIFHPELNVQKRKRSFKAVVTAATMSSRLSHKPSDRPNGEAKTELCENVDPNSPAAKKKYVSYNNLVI
# experiment_notes: mGluR7 assay: CRE-directed luciferase reporter gene assay, reduction of forskolin stimulated cAMP production
# experimental_context: stable CHO cell line expressing the CRE-luc reporter and human mGluR7 genes; decrease of forskolin stimulated luminescence; 10-point concentration-response, duplicate wells
pEC50: −log10 of the molar value. Structures can show the parent of a compound that is named as a salt.
measure: pEC50

Some solved cases for reference:
[[record]]
compound = "CC(C(=O)N[C@H]1Cc2ccccc2[C@@H]1NC(=O)OC(C)(C)C)c1ccc(F)cc1C(F)(F)F (some centres unmarked)"
measure = "pEC50"
readout_number = 6.49

[[record]]
compound = "CCOC1c2ccccc2CC1NC(=O)[C@@H](C)c1ccc(F)cc1F (mixture of isomers)"
measure = "pEC50"
readout_number = 7.55

[[record]]
compound = "C[C@H](C(=O)N[C@H]1Cc2ccccc2[C@@H]1N)c1ccccc1 [Example 11, hydrochloride]"
measure = "pEC50"
readout_number = 6.92


(I) CCOC1c2ccccc2CC1NC(=O)[C@@H](C)c1ccc(F)cc1 (single isomer, unassigned) [Example 33]
(II) COC1c2ccccc2CC1NC(=O)[C@@H](C)c1ccc(F)cc1F (single isomer, unassigned) [Example 27]
Task: Given I and given II , which shows the smaller recorded pEC50? Mark your answer with the label of the selected entry.
Output: I
(I: 7.41, II: 7.68)

* * *

# target: human mGluR7 (Homo sapiens, UniProt Q14831)
# experiment_notes: mGluR7 assay: CRE-directed luciferase reporter gene assay, reduction of forskolin stimulated cAMP production
# experimental_context: stable CHO cell line expressing the CRE-luc reporter and human mGluR7 genes; decrease of forskolin stimulated luminescence; 10-point concentration-response, duplicate wells
pEC50: −log10 of the molar value.
measure: pEC50

[[record]]
molecule = "CCN[C@H]1c2ccccc2C[C@@H]1NC(=O)[C@@H](C)c1ccc(F)cc1"
measure = "pEC50"
readout_number = 7.07

[[record]]
molecule = "COC1c2ccccc2CC1NC(=O)C(c1ccc(F)cc1)N1CC(F)C1 (single isomer, unassigned) [Example 141]"
measure = "pEC50"
readout_number = 7.41


(1) C[C@H](C(=O)N[C@H]1Cc2ccccc2[C@@H]1NCC1CCOCC1)c1ccc(F)cc1F
(2) C[C@H](C(=O)N[C@H]1Cc2ccccc2[C@@H]1NCc1ncccc1F)c1ccc(F)cc1F
(3) COC1c2ccccc2CC1NC(=O)C(c1ccc(F)cc1)N1CC(F)C1 (single isomer, unassigned) [Example 140]
Task: Please list these in order of increasing pEC50. Thank you! // respond by listing labels in the order requested
Output: 3, 1, 2
(3: 5.90, 1: 7.64, 2: 8.15)

* * *

# target: human mGluR7 (Homo sapiens, UniProt Q14831)
# experiment_notes: mGluR7 assay: CRE-directed luciferase reporter gene assay, reduction of forskolin stimulated cAMP production
# experimental_context: stable CHO cell line expressing the CRE-luc reporter and human mGluR7 genes; decrease of forskolin stimulated luminescence; 10-point concentration-response, duplicate wells
pEC50: −log10 of the molar value.
measure: pEC50

Some solved cases for reference:
[[record]]
compound = "N[C@H]1c2ccccc2C[C@@H]1NC(=O)C(c1ccc(F)cc1)C1CC1 (single isomer, unassigned) [Example 97]"
measure = "pEC50"
readout_number = 6.09

[[record]]
compound = "CC[C@H](C(=O)NC1Cc2ccccc2C1OC)c1ccc(F)cc1 (single isomer, unassigned) [Example 45]"
measure = "pEC50"
readout_number = 7.77

[[record]]
compound = "COC1CN(C(C(=O)N[C@H]2Cc3ccccc3[C@@H]2N)c2ccc(F)cc2F)C1 (some centres unmarked) [Example 111]"
measure = "pEC50"
readout_number = 6.87

[[record]]
compound = "C[C@H](C(=O)N[C@H]1Cc2ccccc2[C@@H]1S(C)(=O)=O)c1ccc(F)cc1 [Example 132]"
measure = "pEC50"
readout_number = 8.30

[[record]]
compound = "C[C@H](C(=O)NC1Cc2ccccc2C1O)c1ccccc1 (single isomer, unassigned) [Example 4]"
measure = "pEC50"
readout_number = 6.92

[[record]]
compound = "C[C@H](C(=O)N[C@H]1Cc2ccccc2[C@@H]1NC1CCC1)c1ccc(F)cc1F [Example 91]"
measure = "pEC50"
readout_number = 7.42


(A) COC1c2ccccc2CC1NC(=O)[C@@H](C)c1ccccc1 (stereo in doubt) [Example 10]
(B) C[C@H](C(=O)N[C@H]1Cc2ccccc2[C@@H]1N(Cc1ncco1)Cc1ncco1)c1ccc(F)cc1F [Example 114]
(C) CC[C@H](C(=O)NC1Cc2ccccc2C1OC)c1ccc(F)cc1 (single isomer, unassigned) [Example 46]
Task: Kindly order the items shown according to pEC50, from the highest value down. // respond by listing labels in the order requested
Output: C, B, A

(I) C[C@H](C(=O)NC1Cc2ccccc2C1N1CCOCC1)c1ccc(F)cc1 (single isomer, unassigned) [Example 73]
(II) CN[C@@H]1c2ccccc2C[C@@H]1NC(=O)[C@@H](C)c1ccc(F)cc1 [Example 160]
Task: Given I and given II , which shows the smaller recorded pEC50? Mark your answer with the label of the selected entry.
Output: II

(A) CN[C@H]1c2ccccc2C[C@@H]1NC(=O)[C@@H](C)c1ccccc1 [Example 22]
(B) CC1c2ccccc2CC1NC(=O)[C@@H](NC(=O)OC(C)(C)C)c1ccc(F)cc1 (stereo in doubt) [Example 71]
Task: Form field 'greater pEC50' accepts A or B ; which applies? Mark your answer with the label of the selected entry.
Output: B
(B: 8.70, A: 7.15)

(a) COC1c2ccccc2CC1NC(=O)[C@@H](N)c1ccc(F)cc1 (mixture of isomers) [Example 54]
(b) CCO[C@@H]1c2ccccc2C[C@H]1NC(=O)[C@@H](NCc1csc(C)n1)c1ccc(F)cc1 (mixture of isomers) [Example 60]
Task: Form field 'greater pEC50' accepts a or b ; which applies? Mark your answer with the label of the selected entry.
Output: b

(I) N[C@H]1c2ccccc2C[C@@H]1NC(=O)C(c1ccc(F)cc1)N1CC(F)C1 (single isomer, unassigned) [Example 117]
(II) COC1c2ccccc2CC1NC(=O)C(c1ccc(F)cc1F)n1ncccc1=O (single isomer, unassigned) [Example 124]
Task: Form field 'greater pEC50' accepts I or II ; which applies? Mark your answer with the label of the selected entry.
Output: I

(A) C[C@H](C(=O)NC1Cc2ccccc2C1NCC(F)F)c1ccc(F)cc1 (single isomer, unassigned) [Example 84]
(B) CC(=O)N[C@H]1c2ccccc2C[C@@H]1NC(=O)[C@@H](C)c1ccc(F)cc1F [Example 80]
Task: Form field 'greater pEC50' accepts A or B ; which applies? Mark your answer with the label of the selected entry.
Output: A
(A: 8.10, B: 6.09)
